B1: PI4K2A (parent)
chain: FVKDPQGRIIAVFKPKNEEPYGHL

Variants of: B1
Test: protein stability index of a GFP-peptide fusion (GPS, HEK-293T) (PSI 1-6); higher = more stable;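 further: lentivirally expressed fusions sorted by FACS into six bins by GFP to DsRed ratio, PSI derived from sequencing read proportions per bin multiplied by bin number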
Conditions: c terminus: a fixed tail appended
Please mark true if the recorded protein stability index is equal to or greater than 2, and false if it falls below.

{"Change": "I10L", "Assigned label": "true"}
{"Change": "F1E", "Assigned label": "true"}
{"Change": "P20E", "Assigned label": "false"}
{"Change": "H23P", "Assigned label": "true"}
{"Change": "F13Q", "Assigned label": "true"}
{"Change": "I10N", "Assigned label": "true"}
{"Change": "V12K", "Assigned label": "false"}
{"Change": "N17D", "Assigned label": "false"}
{"Change": "Q6I", "Assigned label": "false"}

Just for reference, the supplement of paper PMC10567573 is where these values come from.
